Measured values drawn from ChEMBL document CHEMBL3217484 for this set.

Exercise: state measured inhibition for each of the compounds provided.
# target.system: NAD-dependent protein deacetylase sirtuin-2 (Homo sapiens)
# experimental.details: Inhibition of human recombinant SIRT2 using fluor de Lys as substrate at 60 uM after 1 hr by fluorimeter analysis
Supply the numeric figure in %, leaving out any unit text.

Requested field: inhibition. Item: `CCCOc1ccc(Cn2c(-c3ccccc3)c(Cc3c(O)ccc4ccccc34)c(=O)[nH]c2=S)cc1`
85.4

Sample `COc1ccc2ccccc2c1Cc1c(-c2ccccc2)n(Cc2ccccc2)c(=S)[nH]c1=O` — what was its inhibition?
37.7

Look at this compound and give its reported inhibition. `CCCCOc1ccc(Cn2c(-c3ccccc3)c(Cc3c(OC)ccc4ccccc34)c(=O)[nH]c2=S)cc1`
66.1

Which measured inhibition value corresponds to `O=c1[nH]c(=S)n(Cc2ccccc2)c(-c2ccccc2)c1Cc1ccccc1` ?
45.1

# lookup: inhibition of `O=c1[nH]c(=S)n(Cc2ccccc2)c(-c2ccccc2)c1Cc1c(OCc2ccccc2)ccc2ccccc12`
48.4

# query: inhibition of entry `CCOc1ccc(Cn2c(-c3ccccc3)c(Cc3c(OC)ccc4ccccc34)c(=O)[nH]c2=S)cc1`
72.2

Could you tell me which inhibition is on file for `COc1ccc(Cn2c(-c3ccccc3)c(Cc3c(OC)ccc4ccccc34)c(=O)[nH]c2=S)cc1` ?
66.1

Any idea what its inhibition is? The compound is `O=c1[nH]c(=S)n(Cc2ccccc2)c(-c2ccccc2)c1Cc1c(O)ccc2ccccc12`
62

If you can, please state the reported inhibition value of `O=c1cc(-c2ccccc2)n(Cc2ccccc2)c(=S)[nH]1` .
27

Which inhibition reading was recorded for the compound `COc1ccc(Cn2c(-c3ccccc3)c(Cc3c(OCc4ccccc4)ccc4ccccc34)c(=O)[nH]c2=S)cc1` ?
56.9

Which measured inhibition value corresponds to `CCCOc1ccc(Cn2c(-c3ccccc3)c(Cc3c(OCc4ccccc4)ccc4ccccc34)c(=O)[nH]c2=S)cc1` ?
65.1

Can you share its inhibition? I mean this compound: `CCCOc1ccc(Cn2c(-c3ccccc3)c(Cc3c(OC)ccc4ccccc34)c(=O)[nH]c2=S)cc1`
71.8

Requested field: inhibition. Item: `CCCCn1c(-c2ccccc2C)c(Cc2c(OC)ccc3ccccc23)c(=O)[nH]c1=S`
37.3

Param item = `COc1ccc(Cn2c(-c3ccccc3)c(Cc3ccccc3)c(=O)[nH]c2=S)cc1` ; retrieve measured inhibition.
67

Look up inhibition: `CCCCOc1ccc(Cn2c(-c3ccccc3)c(Cc3ccccc3)c(=O)[nH]c2=S)cc1`
63.3

Which value of inhibition has been reported for `CCOc1ccc(Cn2c(-c3ccccc3)c(Cc3c(OCc4ccccc4)ccc4ccccc34)c(=O)[nH]c2=S)cc1` in the records?
67.2

Which value of inhibition has been reported for `COc1ccc(Cn2c(-c3ccccc3)c(Cc3c(O)ccc4ccccc34)c(=O)[nH]c2=S)cc1` in the records?
73.4

Consider the compound `CCCCn1c(-c2ccc(Cl)cc2)c(Cc2c(OC)ccc3ccccc23)c(=O)[nH]c1=S` and give its measured inhibition.
49.4

Item `CCOc1ccc(Cn2c(-c3ccccc3)c(Cc3ccccc3)c(=O)[nH]c2=S)cc1` has what recorded inhibition?
73.3

# inhibition lookup, item `COc1ccc2ccccc2c1Cc1c(-c2ccccc2)n(C)c(=S)[nH]c1=O`
37.7

// inhibition lookup, key: `CCOc1ccc(Cn2c(-c3ccccc3)c(Cc3c(O)ccc4ccccc34)c(=O)[nH]c2=S)cc1`
88.9
